measured.target: Cytochrome P450 1A2 (Homo sapiens)
protocol: Cytochrome P450 Family 1 Subfamily A Member 2 (CYP1A2) small molecule antagonists: luciferase reporter qHTS assay (AID 1671199); note: nearly all actives have a fitted effect of over 50% in size
measurement.setup: P450-Glo CYP1A2 enzyme, luciferin luminescence, 1 h; series mostly up to 53 µM
Inconclusive results are not listed. Activity calls are given as the source filed them. Calls come from the whole dose curve; as a rule, active = well fitted inhibition curve with a large enough effect in the repeat runs; inconclusive = weak or mixed curves; inactive = no such curve, though single readings can be large or run the other way.
Lab note: assign the record to one of active, inactive

NNc1nc(-c2ccc(N)cc2)cs1
active
CN(C)[C@@H]1C(=O)C(C(N)=O)=C(O)[C@@]2(O)C(=O)C3=C(O)c4c(O)cccc4C[C@H]3C[C@@H]12
inactive

Okay, next one:
Input line: Recorded test outcome, item `Oc1cc2ccccc2c2ccccc12`
Output line: active

----------
protocol: qHTS assay to identify small molecule antagonists of the estrogen related receptor signaling pathway with the pleiotropic PPARgamma coactivator (PGC) from Tox21 10K library (AID 1224841); note: actives are mostly falling curves and most rising ones were filed inactive; nearly all actives have a fitted effect of over 50% in size; note: potency is the fitted concentration of half-maximal effect
measurement.setup: PGC/ERR reporter cell line, ONE-Glo luciferase, 18 h; series mostly up to 92.4 µM
Results filed as inconclusive are left out. Activity calls are given as the source filed them. The rule behind the calls is not given here.
attribute.measured: Potency

CSc1ccc(/C=C2/C(C)=C(CC(=O)O)c3cc(F)ccc32)cc1
inactive
Nc1cc(C(F)(F)F)ccc1S
29.8 µM (active)
CCC(C)(C)C1CCCCC1OC(C)=O (stereo not drawn)
inactive

----------
measured.target: Estrogen receptor (Homo sapiens)
protocol: qHTS assay to identify small molecule antagonists of the estrogen receptor alpha (ER-alpha) signaling pathway using the BG1 cell line in the presence of 0.1 nM 17-beta-estradiol (AID 1259244); note: nearly all actives have a fitted effect of over 50% in size
measurement.setup: VM7Luc4E2 (BG1) ERE-luciferase, antagonist mode, 0.1 nM E2, 22 h; series mostly up to 92.4 µM
Records with an inconclusive call do not appear. Activity calls are given as the source filed them. Calls come from the whole dose curve; as a rule, active = well fitted inhibition curve with a large enough effect in the repeat runs; inconclusive = weak or mixed curves; inactive = no such curve, though single readings can be large or run the other way.
Lab note: assign the record to one of 1 for active, -1 for inactive

CC(C)n1nc(-c2cc3cc(O)ccc3[nH]2)c2c(N)ncnc21
1
CCCCN1CCCC[C@H]1C(=O)Nc1c(C)cccc1C
-1
CCN1/C(=C/C=C/c2sc3ccccc3[n+]2CC)Sc2ccccc21
1

Okay, next one:
Input line: Recorded test outcome, item COC(=O)C1=C(C)NC(C)=C(C(=O)OCCc2ccc(N3CCN(C(c4ccccc4)c4ccccc4)CC3)cc2)C1c1cccc([N+](=O)[O-])c1 (centres undefined)
Output line: -1

----------
protocol: qHTS assay to identify small molecule antagonists of the sonic hedgehog signaling (Shh) pathway - cell viability counter screen (AID 1259367); note: nearly all actives have a fitted effect of over 55% in size
measurement.setup: NIH/3T3 Gli1-Luc viability, CellTiter-Fluor, 24 h; series mostly up to 42.5 µM
Inconclusive results are not listed. Activity calls are given as the source filed them. The call rests on the fitted dose curve; in most records, active means well fitted cell-killing curve with a large enough effect in the repeat runs; inconclusive means weak or mixed curves, or effect the other way; inactive means no such curve, though single readings can be large or run the other way.
Lab note: assign the record to one of active, inactive

CO[Si](CCCNc1ccccc1)(OC)OC
inactive
COC(=O)C1=C(C)NC(C)=C(C(=O)OCCc2ccc(N3CCN(C(c4ccccc4)c4ccccc4)CC3)cc2)C1c1cccc([N+](=O)[O-])c1 (stereo not given)
inactive
CC(C)C(C)(C)C(C)(C)C(C)(C)S
inactive

Input line: Recorded test outcome, item NC(=O)N1C(=O)C(C(=O)c2cc(Cl)cs2)c2cc(F)c(Cl)cc21 (stereo not given)
Output line: active

Input line: And for `CCCCCCCCOc1ccccc1C(=O)Nc1ccc(C(=O)OCC[N+](C)(CC)CC)cc1` ?
Output line: inactive

----------
protocol: qHTS assay for identifying genotoxic compounds that show differential cytotoxicity against isogenic chicken DT40 cell lines with known DNA damage response pathways - Rad54/Ku70 mutant cell line (AID 743015); note: nearly all actives have a fitted effect of over 60% in size
measurement.setup: DT40 Rad54/Ku70 mutant viability, CellTiter-Glo, 40 h; series mostly up to 66.8 µM
Text: National Center for Advancing Translational Sciences [NCATS] NIH Chemical Genomics Center [NCGC] U.S. Environmental Protection Agency [EPA] National Institutes of Environmental Health Sciences [NIEHS] National Toxicology Program [NTP] U.S. Food and Drug Administration [FDA] DNA repair pathways play a critical role in cellular homeostasis by repairing DNA damage induced by endogenous processes and xenobiotics. […]
Inconclusive results are not listed. Active and inactive are the calls of the source. Calls come from the whole dose curve; as a rule, active = well fitted cell-killing curve with a large enough effect in the repeat runs; inconclusive = weak or mixed curves; inactive = no such curve, though single readings can be large or run the other way.
Lab note: assign the record to one of 1 (active), 0 (inactive)

Example entries begin here.
O=C1C=CC(=O)N1c1ccc(Cc2ccc(N3C(=O)C=CC3=O)cc2)cc1
1
Fc1ccc([C@@H]2CCNC[C@H]2COc2ccc3c(c2)OCO3)cc1
1
CCOC(=O)O[C@H](C)OC(=O)c1ccc2c(c1)cc(C(=O)NC1CCN(C(C)C)CC1)n2Cc1cc(-c2ccc(Cl)s2)on1
1

Okay, next one:
Input line: Recorded test outcome, item `O=C(O)c1c(Cl)cccc1Cl`
Output line: 0

----------
protocol: qHTS assay to identify small molecule antagonists of the constitutive androstane receptor (CAR) signaling pathway - cell viability counter screen (AID 1224837); note: nearly all actives have a fitted effect of over 45% in size
measurement.setup: HepG2-CYP2B6-hCAR viability, CellTiter-Fluor, 23 h, co-treated with 50 nM CITCO; series mostly up to 92.4 µM
Results filed as inconclusive are left out. The source made the active and inactive calls. The call rests on the fitted dose curve; in most records, active means well fitted cell-killing curve with a large enough effect in the repeat runs; inconclusive means weak or mixed curves, or effect the other way; inactive means flat fitted curve, though single readings scatter.
Lab note: assign the record to one of true = active, false = inactive

Example entries begin here.
O=[N+]([O-])c1cc(Cl)c(Cl)c(Cl)c1Cl
false
Cc1cccc(N(C)C(=S)Oc2ccc3c(c2)C2CCC3C2)c1 (centres undefined)
false
CCCCCCCC/C=C\CCCCCCCCOCCO
true
Cc1cc(C2CCCCC2)n(O)c(=O)c1
true
N=C1C=CC(=C(c2ccc(N)cc2)c2ccc(N)cc2)C=C1
true
NNc1nc(-c2ccc([N+](=O)[O-])cc2)cs1
true
CCOC(=O)O[C@]1(C(=O)OCCl)CC[C@H]2[C@@H]3CCC4=CC(=O)C=C[C@]4(C)[C@H]3[C@@H](O)C[C@@]21C
false
CCCCCCCCCCCCCCCC(=O)OC[C@H](O)[C@H]1OC(=O)C(O)=C1O
false

Okay, next one:
Input line: Recorded test outcome, item `O=Cc1cc(O)ccc1Br`
Output line: false

----------
protocol: qHTS assay to identify small molecule antagonists of the estrogen receptor alpha (ER-alpha) signaling pathway using the BG1 cell line - cell viability counter screen (AID 743081);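 note: compound given together with 17beta-estradiol as the ER stimulus; nearly all actives have a fitted effect of over 45% in size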
measurement.setup: BG1Luc4E2 viability, CellTiter-Fluor, 22 h; series mostly up to 70.3 µM
Inconclusive results are not listed. Active and inactive are the calls of the source. The call rests on the fitted dose curve; in most records, active means well fitted cell-killing curve with a large enough effect in the repeat runs; inconclusive means weak or mixed curves, or effect the other way; inactive means flat fitted curve, though single readings scatter.
Lab note: assign the record to one of active, inactive

Example entries begin here.
CC(C)=CCOc1ccc(/C=C/C(=O)c2ccc(OCC=C(C)C)cc2OCC(=O)O)cc1
inactive
CCc1cc(SCc2sc(-c3ccc(C(F)(F)F)cc3)nc2CN2CCN(c3ccc(OC)cc3)CC2)ccc1OCC(=O)O
inactive
N=C1C=CC(=C(c2ccc(N)cc2)c2ccc(N)cc2)C=C1
active

Input line: Recorded test outcome, item `Cc1cc(O)c(C(C)(C)C)cc1Sc1cc(C(C)(C)C)c(O)cc1C`
Output line: active

Input line: And for `ON=C1CCCC1` ?
Output line: inactive

Input line: And for `CCCCCCCCCCCCCCCC(=O)OC[C@H](O)[C@H]1OC(=O)C(O)=C1O` ?
Output line: inactive

Input line: And for `CCCCCOC(=O)CCCC` ?
Output line: inactive

Input line: And for `CSc1ccc(/C=C2/C(C)=C(CC(=O)O)c3cc(F)ccc32)cc1` ?
Output line: inactive

----------
protocol: qHTS assay to identify small molecule agonists of the estrogen receptor alpha (ER-alpha) signaling pathway in the presence of an antagonist - cell viability counter screen (AID 1259386);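 note: cells exposed to compounds for 22 h at 37 °C before the viability read; nearly all actives have a fitted effect of over 30% in size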
measurement.setup: VM7Luc4E2 viability, CellTiter-Fluor fluorescence, 22 h; series mostly up to 92.4 µM
Records with an inconclusive call do not appear. The source made the active and inactive calls. Calls come from the whole dose curve; as a rule, active = well fitted cell-killing curve with a large enough effect in the repeat runs; inconclusive = weak or mixed curves, or effect the other way; inactive = no such curve, though single readings can be large or run the other way.
Lab note: assign the record to one of active, inactive

Example entries begin here.
Cc1cccc(N(C)C(=S)Oc2ccc3c(c2)C2CCC3C2)c1 (stereo unspecified)
inactive
CC(C)(C)c1ccc(C(=O)CCCN2CCC(OC(c3ccccc3)c3ccccc3)CC2)cc1
inactive
Cc1cccc(CN2CCN(C(c3ccccc3)c3ccc(Cl)cc3)CC2)c1 (stereo unspecified)
inactive
N/C(=N\N=C\c1ccc(Cl)cc1)N/N=C/c1ccc(Cl)cc1
inactive
CC(=O)N1CCN(c2ccc(OC[C@H]3CO[C@](Cn4ccnc4)(c4ccc(Cl)cc4Cl)O3)cc2)CC1
active

Input line: Recorded test outcome, item `O=C(c1ccc(O)cc1O)c1ccc(O)cc1O`
Output line: inactive

----------
measured.target: Thyrotropin receptor (Homo sapiens)
protocol: qHTS assay to identify small molecule agonists of the thyroid stimulating hormone receptor (TSHR) signaling pathway (AID 1224843); note: nearly all actives have a fitted effect of over 45% in size
measurement.setup: TSHR-HEK293 cells, cAMP HTRF, agonist mode, 30 min; series mostly up to 92.4 µM
Records with an inconclusive call do not appear. Calls of active or inactive are those of the source. Calls come from the whole dose curve.
Lab note: assign the record to one of active, inactive

CN1CCC(Nc2ncc3ncnc(Nc4ccc(F)c(Cl)c4)c3n2)CC1
inactive

Input line: Recorded test outcome, item `O=C(c1ccc(O)cc1O)c1ccc(O)cc1O`
Output line: inactive

Input line: And for `O=C1CCCc2c1cc1ccc3cccc4ccc2c1c34` ?
Output line: inactive

Input line: And for `CC(C)(C)c1ccc(C(=O)O)cc1` ?
Output line: inactive

Input line: And for `O=C1Cc2cc(CCN3CCN(c4nsc5ccccc45)CC3)c(Cl)cc2N1` ?
Output line: inactive

Input line: And for `O=c1cccccc1O` ?
Output line: inactive

Input line: And for `CC[C@@]1(O)C(=O)OCc2c1cc1n(c2=O)Cc2cc3c(CN(C)C)c(O)ccc3nc2-1` ?
Output line: inactive

Input line: And for `[Cl][Bi]([Cl])([c]1ccccc1)([c]1ccccc1)[c]1ccccc1` ?
Output line: active

Input line: And for `O=C(O)c1ccc(Cl)c(Cl)c1` ?
Output line: inactive

Input line: And for `Nc1ccc(N)c2ccccc12` ?
Output line: inactive

Input line: And for `CCOC(=O)/C=C(C)/C=C/C=C(C)/C=C/c1c(C)cc(OC)c(C)c1C` ?
Output line: inactive

Input line: And for `C/C=C(\C)C(=O)OCc1ccccc1` ?
Output line: inactive
